# measured.target: Nuclear receptor subfamily 1 group I member 3 (Homo sapiens) (UniProt Q14994)
# Sequence (Q14994 whole entry, looked up): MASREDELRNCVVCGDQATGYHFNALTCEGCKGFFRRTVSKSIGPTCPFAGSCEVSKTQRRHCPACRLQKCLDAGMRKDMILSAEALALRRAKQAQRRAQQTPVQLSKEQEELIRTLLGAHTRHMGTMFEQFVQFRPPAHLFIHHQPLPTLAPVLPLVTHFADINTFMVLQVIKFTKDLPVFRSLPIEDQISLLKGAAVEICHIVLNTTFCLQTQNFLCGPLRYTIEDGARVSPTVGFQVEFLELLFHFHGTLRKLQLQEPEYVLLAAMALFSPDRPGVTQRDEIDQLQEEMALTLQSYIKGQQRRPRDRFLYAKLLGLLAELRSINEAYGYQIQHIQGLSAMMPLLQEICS
# procedure.text: qHTS assay to identify small molecule agonists of the constitutive androstane receptor (CAR) signaling pathway (AID 1224839);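 also: HepG2 cells stably carrying human CAR and a CYP2B6 luciferase reporter; % is scaled to controls: 0 for no effect and ±100 for the full control effect; nearly all actives have a fitted effect of over 15% in size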
# measurement.conditions: HepG2 hCAR CYP2B6-luciferase, agonist mode, 24 h; series mostly up to 92.4 µM
Inconclusive results are not listed. The source made the active and inactive calls. Calls follow the shape of the dose curve; as a rule, active = well fitted activation curve with a large enough effect in the repeat runs; inconclusive = weak or mixed curves; inactive = no such curve, though single readings can be large or run the other way.
Form entry, call: pick from 1 = active, 0 = inactive

Recorded call for "CC(=O)OCC(C)C" ?
0

###

# procedure.text: qHTS assay to identify small molecule antagonists of the estrogen receptor beta (ER-beta) signaling pathway - cell viability counter screen (AID 1259382);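 also: HEK293T cells carrying ER-beta-UAS-bla reporter stimulated with estradiol; % is scaled to controls: 0 for no effect and ±100 for the full control effect; nearly all actives have a fitted effect of over 55% in size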
# measurement.conditions: ER-beta-UAS-bla HEK293T viability, CellTiter-Glo luminescence, 16 h; series mostly up to 92.4 µM
# From the text: U.S. Tox21 Program National Center for Advancing Translational Sciences [NCATS] NIH Chemical Genomics Center [NCGC] U.S. Environmental Protection Agency [EPA] National Institutes of Environmental Health Sciences [NIEHS] National Toxicology Program [NTP] U.S. Food and Drug Administration [FDA] Tox21 Assay Overview: Estrogen receptor (ER), a nuclear hormone receptor, plays an important role in development, metabolic homeostasis and reproduction. […]
Results filed as inconclusive are left out. Calls of active or inactive are those of the source. Calls come from the whole dose curve; as a rule, active = well fitted cell-killing curve with a large enough effect in the repeat runs; inconclusive = weak or mixed curves; inactive = flat fitted curve, though single readings scatter.
endpoint.name: activity change, negative = cytotoxicity

In the examples that follow, each entry is paired with its recorded activity change, negative = cytotoxicity.
>  <compound>
Cc1ccc2c(c1[N+](=O)[O-])C(=O)c1ccccc1C2=O

>  <activity change, negative = cytotoxicity>
inactive

$$$$
>  <compound>
Cc1ccc2nc(N)[nH]c(=O)c2c1Sc1ccncc1

>  <activity change, negative = cytotoxicity>
inactive

$$$$
>  <compound>
CC(=O)OCC1=C(C(=O)O)N2C(=O)[C@@H](NC(=O)CSc3ccncc3)[C@H]2SC1

>  <activity change, negative = cytotoxicity>
inactive

$$$$
>  <compound>
O=S(=O)(Cl)c1c(Cl)cccc1Cl

>  <activity change, negative = cytotoxicity>
inactive

$$$$
>  <compound>
CCN(CC)C(=O)/C(C#N)=C/c1cc(O)c(O)c([N+](=O)[O-])c1

>  <activity change, negative = cytotoxicity>
inactive

$$$$

// below: activity change, negative = cytotoxicity requested for another compound
Any idea what activity change, negative = cytotoxicity was measured for CCCCCCCCCCCCCC(=O)OCC(O)CO (stereo unspecified) ?
inactive

###

# procedure.text: qHTS assay to identify small molecule HDAC inhibitors - cell viability counter screen (AID 1259365); also: % is scaled to controls: 0 for no effect and ±100 for the full control effect; nearly all actives have a fitted effect of over 50% in size
# measurement.conditions: HCT-116 viability, CellTiter-Glo ATP luminescence, 2 h; series mostly up to 92.4 µM
The source made the active and inactive calls. Calls come from the whole dose curve; as a rule, active = well fitted cell-killing curve with a large enough effect in the repeat runs; inconclusive = weak or mixed curves, or effect the other way; inactive = flat fitted curve, though single readings scatter.
endpoint.name: activity change, negative = cytotoxicity

In the examples that follow, each entry is paired with its recorded activity change, negative = cytotoxicity.
>  <compound>
CCN(CC)CCOc1ccccc1C(=O)CCc1ccccc1

>  <endpoint.name>
activity change, negative = cytotoxicity

>  <measured>
inactive

$$$$
>  <compound>
ClC1=C(Cl)C1(Cl)Cl

>  <endpoint.name>
activity change, negative = cytotoxicity

>  <measured>
inactive

$$$$
>  <compound>
COc1ccc(C(=O)NCc2ccc(OCCN(C)C)cc2)cc1OC

>  <endpoint.name>
activity change, negative = cytotoxicity

>  <measured>
inactive

$$$$
>  <compound>
CCOC(=O)c1c(N)sc2c1CCN(Cc1ccccc1)C2

>  <endpoint.name>
activity change, negative = cytotoxicity

>  <measured>
inactive

$$$$
>  <compound>
OCC(CO)n1cnc(-c2ccc(F)cc2)c1-c1ccnc(Oc2ccccc2)n1

>  <endpoint.name>
activity change, negative = cytotoxicity

>  <measured>
inactive

$$$$

// below: activity change, negative = cytotoxicity requested for another compound
Any idea what activity change, negative = cytotoxicity was measured for CC(CCc1ccc(O)cc1)NCCc1ccc(O)c(O)c1 (centres undefined) ?
inactive

###

# procedure.text: qHTS assay to identify small molecule antagonists of the estrogen related receptor (ERR) signaling pathway from Tox21 library - cell viability counter screen (AID 1224834); also: nearly all actives have a fitted effect of over 30% in size
# measurement.conditions: ERR reporter cells viability, CellTiter-Fluor, 17.5 h; series mostly up to 92.4 µM
Results filed as inconclusive are left out. Activity calls are given as the source filed them. Calls come from the whole dose curve; as a rule, active = well fitted cell-killing curve with a large enough effect in the repeat runs; inconclusive = weak or mixed curves; inactive = flat fitted curve, though single readings scatter.
Form entry, call: pick from active, inactive

Worked examples follow.
>  <smiles.data>
O=C1c2ccccc2C(=O)c2c(O)ccc(O)c21

>  <group.label>
inactive

$$$$
>  <smiles.data>
O[C@@H](CNC[C@H](O)[C@H]1CCc2cc(F)ccc2O1)[C@@H]1CCc2cc(F)ccc2O1

>  <group.label>
active

$$$$
>  <smiles.data>
C=CCOC(=O)COCCC(C)C

>  <group.label>
inactive

$$$$
>  <smiles.data>
CSCC[C@H](NC(=O)[C@H](Cc1c[nH]c2ccccc12)NC(=O)CCNC(=O)OC(C)(C)C)C(=O)N[C@@H](CC(=O)O)C(=O)N[C@@H](Cc1ccccc1)C(N)=O

>  <group.label>
inactive

$$$$

Recorded call for "CC(C)COC(=O)c1ccc(O)cc1" ?
inactive

Recorded call for "CC(C)(C(=O)c1cccnc1)c1cccnc1" ?
inactive

Recorded call for "CN=C(N)NC(=O)Nc1c(C)cccc1C" ?
inactive

Recorded call for "O=CNNC=O" ?
inactive

Recorded call for "CCOc1ncc(F)c(=O)[nH]1" ?
inactive

Recorded call for "NC(=O)c1ccccc1[N+](=O)[O-]" ?
inactive

###

# procedure.text: A CellTox Green Cytotoxicity Assay to monitor cytotoxicity in HepG2 cells - 24 hour (AID 1224878); also: nearly all actives have a fitted effect of over 45% in size; as to Cytotoxicity: % is scaled to controls: 0 for no effect and ±100 for the full control effect
# measurement.conditions: CellTox Green fluorescence; series mostly up to 76.8 µM
Results filed as inconclusive are left out. Calls of active or inactive are those of the source. The call rests on the fitted dose curve; in most records, active means well fitted activation curve with a large enough effect in the repeat runs; inconclusive means weak or mixed curves; inactive means flat fitted curve, though single readings scatter.
Form entry, call: pick from active, inactive

Worked examples follow.
>  <molecule>
Nc1ccc(NC(=O)c2ccc(N)cc2)cc1

>  <group.label>
inactive

$$$$
>  <molecule>
COc1ccc(-c2cc(=S)ss2)cc1

>  <group.label>
inactive

$$$$
>  <molecule>
CC[C@@H](CO)NCCN[C@@H](CC)CO

>  <group.label>
inactive

$$$$

Recorded call for "Cc1cc(CCCOc2c(C)cc(-c3noc(C(F)(F)F)n3)cc2C)on1" ?
inactive

Recorded call for "CC(C)(O)CCc1ccccc1" ?
inactive

Recorded call for "CN(C)CC/C=C1\c2ccccc2Sc2ccc(Cl)cc21" ?
active

Recorded call for "COC(OC)OC" ?
inactive

Recorded call for "COc1ccc(C)cc1" ?
inactive

Recorded call for "C1CCCCC1" ?
inactive

###

# procedure.text: qHTS assay for identifying genotoxic compounds that show differential cytotoxicity against isogenic chicken DT40 cell lines with known DNA damage response pathways - Rev3 mutant cell line (AID 743014); also: nearly all actives have a fitted effect of over 55% in size
# measurement.conditions: chicken DT40 Rev3-/- viability, CellTiter-Glo, 40 h; series mostly up to 68.4 µM
Results filed as inconclusive are left out. Active and inactive are the calls of the source. The call rests on the fitted dose curve; in most records, active means well fitted cell-killing curve with a large enough effect in the repeat runs; inconclusive means weak or mixed curves, or effect the other way; inactive means no such curve, though single readings can be large or run the other way.
Form entry, call: pick from True (active), False (inactive)

Worked examples follow.
>  <compound>
CSSc1ccoc1C

>  <group.label>
True

$$$$
>  <compound>
O=C(c1ccccc1)C1CCC1

>  <group.label>
False

$$$$
>  <compound>
Nc1cccc2c(N)cccc12

>  <group.label>
True

$$$$
>  <compound>
CC(O)Cn1cnc2c1c(=O)n(C)c(=O)n2C (configuration not stated)

>  <group.label>
False

$$$$
>  <compound>
O=C1[C@@H]2[C@H]3CC[C@H](C3)[C@@H]2C(=O)N1CCCCN1CCN(c2ncccn2)CC1

>  <group.label>
False

$$$$

Recorded call for "CCCCCCCCCCCSCC(=O)O" ?
False

Recorded call for "Cc1ccc(Cl)cc1N" ?
False

Recorded call for "CCSC(=O)N(CC)CC" ?
False

###

# procedure.text: qHTS assay to test for compound auto fluorescence at 535 nm (green) in HepG2 cells (AID 720675); also: % is scaled to controls: 0 for no effect and ±100 for the full control effect
# measurement.conditions: green autofluorescence 485/535 nm, 1 h; series mostly up to 91.3 µM
Calls of active or inactive are those of the source. Calls come from the whole dose curve; as a rule, active = well fitted curve in the direction sought with a large enough effect in the repeat runs; inconclusive = weak or mixed curves; inactive = flat fitted curve, though single readings scatter.
endpoint.name: fluorescence, % of fluorescein control

In the examples that follow, each entry is paired with its recorded fluorescence, % of fluorescein control.
>  <compound>
Cc1ccc(Cl)cc1N

>  <measured>
inactive

$$$$
>  <compound>
CC(C)(C)CCCCCCOC(=O)c1ccccc1C(=O)OCCCCCCC(C)(C)C

>  <measured>
inactive

$$$$
>  <compound>
CC[C@H]1OC(=O)[C@H](C)[C@@H](O[C@H]2C[C@@](C)(OC)[C@@H](O)[C@H](C)O2)[C@H](C)[C@@H](O[C@@H]2O[C@H](C)C[C@H](N(C)C)[C@H]2O)[C@](C)(O)C[C@@H](C)C(=O)[C@H](C)[C@@H](O)[C@]1(C)O

>  <measured>
inactive

$$$$
>  <compound>
BrC(Br)C(Br)Br

>  <measured>
inactive

$$$$
>  <compound>
C=CC(=O)O

>  <measured>
inactive

$$$$
>  <compound>
CCN(CC)C(=O)N1CCN(C)CC1

>  <measured>
-0.0715% [at 18.6 µM] (inactive)

$$$$
>  <compound>
Nc1nc(-c2ccc([N+](=O)[O-])cc2)cs1

>  <measured>
inactive

$$$$
>  <compound>
CCCCCCC(O)CCOC(C)=O (stereo not given)

>  <measured>
inactive

$$$$
>  <compound>
O=C1c2ccccc2C(=O)c2c(O)ccc(O)c21

>  <measured>
inactive

$$$$

// below: fluorescence, % of fluorescein control requested for another compound
Any idea what fluorescence, % of fluorescein control was measured for "CC(=O)NNC(C)=O" ?
inactive
